Taken from patent US10889573B2.

experiment: log P by HPLC on reversed phase columns (Method L0)
# Lookup of reported chromatographic logP keyed by entry
Give the figure by itself; no unit, no explanation.

testsmiles=O=C(N[C@H]1CCOc2ccccc21)c1cnc2c(-c3cc(Cl)cc(Cl)c3)cccc2c1-n1nccn1 reportedmeasurement=5
testsmiles=O=C(N[C@H]1CCOc2ccccc21)c1cnc2c(-c3cc(Cl)cc(Cl)c3)cccc2c1N1CCC1 reportedmeasurement=1.9

Here is another compound to look at.
Q) // lookup chromatographic logP for CCOC(=O)CN(C)c1c(C(=O)N[C@H]2CCOc3ccccc32)cnc2c(-c3cc(Cl)cc(Cl)c3)cccc12
A) 4.8

----------
System: Haemonchus contortus
conditionDetails: 120 h, read-out: activity (larval mortality)
readoutType: mortality at 4 ppm (%)
Give the value, in units of %, as a plain number.

Sample answers from the record:
molecule=O=C(N[C@H]1CCOc2ccccc21)c1cnc2c(-c3cc(Cl)cc(Cl)c3)cccc2c1C1CCOCC1 readouttype="mortality at 4 ppm" reportedmeasurement=100
molecule=CCOc1c(C(=O)N[C@H]2CCc3ccccc32)cnc2c(-c3cc(Cl)cc(Cl)c3)cccc12 readouttype="mortality at 4 ppm" reportedmeasurement=100
molecule="Cc1cc(Cl)cc(-c2cccc3c(N4CCC(O)C4)c(C(=O)N[C@H]4CCOc5ccccc54)cnc23)c1F (mixture of isomers)" readouttype="mortality at 4 ppm" reportedmeasurement=90

Q) Look up mortality at 4 ppm: COc1c(F)ccc(-c2cccc3c(N4CCOCC4)c(C(=O)N[C@H]4CCOc5ccccc54)cnc23)c1F
A) 80

Q) Which mortality at 4 ppm is reported for this molecule? O=C(N[C@H]1CCOc2ccccc21)c1cnc2c(-c3cc(F)cc(F)c3F)cccc2c1C1COC1
A) 100

Q) Given the molecule O=C(N[C@H]1CCOc2ccccc21)c1cnc2c(-c3cc(Cl)cc(C(F)(F)F)c3)cccc2c1N1CCC(O)C1 (mixture of isomers) , what is its reported mortality at 4 ppm?
A) 90

Q) Bench note: what mortality at 4 ppm did O=C(N[C@H]1CCOc2ccccc21)c1cnc2c(-c3cc(Cl)cc(Cl)c3)cccc2c1N1CC(F)C1 show?
A) 80

Q) mortality at 4 ppm for O=C(N[C@H]1CCOc2ccccc21)c1cnc2c(-c3cc(Cl)cc(Cl)c3)cccc2c1N1CC[C@@H](C(=O)O)C1 ?
A) 100

----------
Test system: Haemonchus contortus
conditionDetails: 120 h, read-out: activity (larval mortality)
readoutType: mortality at 4 ppm (%)
Your answer is read as %, so omit the unit and give the number.

molecule=O=C(N[C@H]1CCOc2ccccc21)c1cnc2c(-c3cc(Cl)cc(Cl)c3)cccc2c1-c1ccncc1 readoutunit=% reportedmeasurement=90
molecule=O=C(N[C@H]1CCOc2ccccc21)c1cnc2c(-c3cc(Cl)cc(C(F)(F)F)c3)cccc2c1N1CCOCC1 readoutunit=% reportedmeasurement=90
molecule=O=C(N[C@H]1CCOc2ccccc21)c1cnc2c(-c3cc(Cl)cc(Cl)c3)cccc2c1N1CCC1 readoutunit=% reportedmeasurement=90
molecule=CN(C)c1c(C(=O)N[C@H]2CCOc3ccccc32)cnc2c(-c3ccc(F)cc3Cl)c(F)ccc12 readoutunit=% reportedmeasurement=80
molecule=CN(C)c1c(C(=O)N[C@H]2CCOc3ccccc32)cnc2c(-c3cc(F)c(F)c(F)c3)cccc12 readoutunit=% reportedmeasurement=90

Q) Any idea what mortality at 4 ppm was measured for O=C(N[C@H]1CCOc2ccccc21)c1cnc2c(-c3cccc(Cl)c3)cccc2c1N1CCC(O)C1 (mixture of isomers) ?
A) 80

----------
experiment: log P by HPLC on reversed phase columns (Method L0)
conditionDetails: acidic range, 0.1% formic acid in water / acetonitrile
Assign met whenever logP (Method L0)[a] does not fall below 5; assign not met whenever it does.

testsmiles=CCOC(=O)c1cnc2c(-c3cc(Cl)cc(Cl)c3)cccc2c1N1CCOCC1 qualitativelabel=met
testsmiles=O=C(O)c1cnc2c(-c3cccc(Cl)c3Cl)cccc2c1N1CCOCC1 qualitativelabel="not met"
testsmiles=CCOC(=O)c1cnc2c(-c3cc(F)cc(F)c3F)cccc2c1N(C)C qualitativelabel="not met"
testsmiles=CCOC(=O)c1cnc2c(-c3cc(Cl)cc(Cl)c3Cl)c(F)ccc2c1N(C)C qualitativelabel="not met"
testsmiles=CCOC(=O)c1cnc2c(-c3cccc(Cl)c3Cl)cccc2c1N1CCOCC1 qualitativelabel="not met"

Q) Assess whether reported logP (Method L0)[a] for CCOC(=O)c1cnc2c(-c3cc(F)cc(F)c3F)c(F)ccc2c1N(C)C sits at 5 or higher.
A) not met

----------
Each entry below lists one item and its recorded EC50 value.
Tested on: Litomosoides sigmodontis third-stage larvae
conditionDetails: 72 h, read-out: EC50 (reduction of motility)

Please review the following examples before continuing.
molecule="CCc1c(C(=O)N[C@H]2CCOc3ccccc32)cnc2c(-c3cc(Cl)cc(Cl)c3)cccc12 [Example 350]" readouttype=EC50 reportedmeasurement="< 0.1 µg/mL"
molecule="O=C(N[C@H]1CCOc2ccccc21)c1cnc2c(-c3cc(Cl)cc(Cl)c3)cccc2c1-c1ccncc1 [Example 396]" readouttype=EC50 reportedmeasurement="< 0.1 µg/mL"
molecule="COc1c(C(=O)N[C@H]2CCOc3ccccc32)cnc2c(-c3cc(Cl)cc(Cl)c3)cccc12 [Example 373]" readouttype=EC50 reportedmeasurement="< 1 µg/mL"
molecule="O=C(N[C@H]1CCOc2ccccc21)c1cnc2c(-c3cccc(Cl)c3Cl)cccc2c1N1CCOCC1 [Example 52]" readouttype=EC50 reportedmeasurement="< 0.1 µg/mL"
molecule="CCOc1c(C(=O)N[C@H]2CCOc3ccccc32)cnc2c(-c3cc(Cl)cc(Cl)c3)cccc12 [Example 341]" readouttype=EC50 reportedmeasurement="< 0.1 µg/mL"

Q) API: value(readout= EC50, system= Litomosoides sigmodontis third-stage larvae, query= O=C(N[C@H]1CCOc2ccccc21)c1cnc2c(-c3cc(Cl)cc(Cl)c3)cccc2c1N1CC(F)(F)C1 [Example 394] )
A) < 0.1 µg/mL

Q) API: value(readout= EC50, system= Litomosoides sigmodontis third-stage larvae, query= CN(C)c1c(C(=O)N[C@H]2CCOc3ccccc32)cnc2c(-c3cccc4[nH]ccc34)cccc12 [Example 73] )
A) < 1 µg/mL

Q) Request - read-out EC50 | tested on Litomosoides sigmodontis third-stage larvae | molecule O=C(N[C@H]1CCc2ccccc21)c1cnc2c(-c3cc(Cl)cc(Cl)c3)cccc2c1Cl [Example 3]
A) < 1 µg/mL

Q) Query the reported EC50 for Litomosoides sigmodontis third-stage larvae; item: CCOc1c(C(=O)N[C@H]2CCc3ccccc32)cnc2c(-c3cc(Cl)cc(Cl)c3)cccc12 [Example 134]
A) < 0.1 µg/mL

Q) Give EC50 (Litomosoides sigmodontis third-stage larvae) of the following molecule: CNc1c(C(=O)N[C@H]2CCOc3ccccc32)cnc2c(-c3cc(Cl)cc(Cl)c3)cccc12 [Example 24]
A) < 0.1 µg/mL

Q) Item: O=C(N[C@H]1CCOc2ccccc21)c1cnc2c(-c3cc(F)cc(Cl)c3)c(F)ccc2c1N1CCOCC1 [Example 143] Test system: Litomosoides sigmodontis third-stage larvae Read-out: EC50 Value: ?
A) < 0.1 µg/mL

Q) Param readout= EC50; system= Litomosoides sigmodontis third-stage larvae; entry= CN(C)c1c(C(=O)N[C@H]2CCOc3ccccc32)cnc2c(-c3cc(Cl)ccc3F)cccc12 [Example 37] ; returns value.
A) < 0.1 µg/mL

Q) Hi! What's the reported EC50 for CN(C)c1c(C(=O)N[C@H]2CCOc3ccccc32)cnc2c(-c3cccc(Cl)c3)c(F)ccc12 [Example 141] on Litomosoides sigmodontis third-stage larvae?
A) < 0.1 µg/mL

Q) Observed EC50 on Litomosoides sigmodontis third-stage larvae for O=C(N[C@H]1CCOc2ccccc21)c1cnc2c(-c3cc(Cl)cc(Cl)c3)cccc2c1N1CCOCC1 [Example 17] , please.
A) < 0.1 µg/mL

Q) Checklist item: EC50 tested on Litomosoides sigmodontis third-stage larvae, entry COc1c(F)ccc(-c2cccc3c(N4CCOCC4)c(C(=O)N[C@H]4CCOc5ccccc54)cnc23)c1F [Example 53] , value?
A) < 0.1 µg/mL

Q) Item: Cc1cc(-c2cc(Cl)cc(Cl)c2)c2ncc(C(=O)N[C@H]3CCOc4ccccc43)c(N(C)C)c2c1 [Example 12] Test system: Litomosoides sigmodontis third-stage larvae Read-out: EC50 Value: ?
A) < 0.1 µg/mL

----------
experiment: log P by HPLC on reversed phase columns (Method L0)
conditionDetails: HPLC on reversed phase columns, Method L0
Threshold check on logP (Method L0)^[a]: at or above 4 gives Yes, strictly below gives No.

Previously resolved entries follow.
molecule=CN(CCN1CCCC1=O)c1c(C(=O)N[C@H]2CCOc3ccccc32)cnc2c(-c3cc(Cl)cc(Cl)c3)cccc12 qualitativelabel=No
molecule=CNc1c(C(=O)N[C@H]2CCOc3ccccc32)cnc2c(-c3cc(F)c(OC(F)F)c(F)c3)c(F)ccc12 qualitativelabel=No
molecule=CCSc1c(C(=O)N[C@H]2CCOc3ccccc32)cnc2c(-c3cc(Cl)cc(Cl)c3)cccc12 qualitativelabel=Yes
molecule=CCSc1c(C(=O)N[C@H]2CCOc3ccccc32)cnc2c(-c3cccc(Cl)c3Cl)cccc12 qualitativelabel=Yes
molecule="CC[S+]([O-])c1c(C(=O)N[C@H]2CCOc3ccccc32)cnc2c(-c3cccc(Cl)c3Cl)cccc12 (some centres unmarked)" qualitativelabel=No

Q) // inclusive: logP (Method L0)^[a] at least 4? input: O=C(N[C@H]1CCOc2ccccc21)c1cnc2c(-c3cc(F)cc(F)c3F)c(F)ccc2c1N1CCOCC1
A) No

Q) Decide: logP (Method L0)^[a] of Cc1nc2c(-c3cccc(Cl)c3Cl)cccc2c(N(C)C)c1C(=O)N[C@H]1CCOc2ccccc21 >= 4?
A) No
